test system: PIP5K1A; conditions: concentration: 1 μM, replicates: in singlicate; n = 1;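 further: KINOMEscan kinase panel screen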
For each record, write down the corresponding %Inh.
Numbers only, in %.

1. CSc1ccc(-c2nc3n(c2-c2ccncc2)CCC3)cc1	37
2. Cc1nccc(-c2c(-c3ccc(F)cc3)ncn2CCCN2CCOCC2)n1.Cl	0
3. CN1c2ccc(-c3ccc(C(N)=O)cc3)cc2-c2[nH]ncc2S1(=O)=O	0
4. CS(=O)(=O)Cc1ccc(Nc2nccc(-c3c(-c4cccc(NC(=O)C5CCCCC5)c4)nn4ncccc34)n2)cc1	0
5. CS(=O)(=O)CCNCc1nc(-c2ccc3ncnc(Nc4ccc5c(cnn5Cc5ccccc5)c4)c3c2)cs1.Cl.Cl	46
6. CCCCc1nn2ncccc2c1-c1ccnc(NC2CC2)n1	0
7. Cc1c(Cn2c3ccccc3n3c(=O)cc(N4CCOCC4)nc23)cccc1C(F)(F)F	0
8. COC(=O)c1cccc(NC(=O)NC2CCN(c3ccnc(Nc4ccc(OC)cc4)n3)C2)c1 (stereo not drawn)	17

Okay, next one:
# return recorded %Inh for input "CCn1c(-c2ccccc2)nc2cnccc21"
5

###

test system: MYLK2; details: concentration: 1 μM, replicates: in singlicate; n = 1
Provide the recorded %Inh for the entries that follow.
Answers are plain numbers, in %.

1. COc1ccc(-c2coc3ccc(-c4nnc(C)o4)cc23)cc1	18
2. O=C(Nc1n[nH]c2nc(-c3cccs3)c(Br)cc12)C1CCCC1	97.7
3. CN1c2ccc(-c3ccc(C(N)=O)cc3)cc2-c2[nH]ncc2S1(=O)=O	0
4. FC(F)(F)c1ccccc1-c1cc(-c2c[nH]nc2-c2ccccn2)ccn1	26
5. Cl.Cl.Cl.N#Cc1ccc(CCNc2nccc(-c3cccc(CN4CCNCC4)c3)n2)cc1	12

For each of the compounds below, note its %Inh.
1. CCn1c(-c2c(N)noc2C)nc2cnccc21
2. COc1ccc(Nc2nccc(-c3ccc(NC(=O)c4cc5cc(F)ccc5[nH]4)cc3)n2)cc1

7
0

Please give %Inh, item by item, for the list that follows.
1. COC(=O)c1cccc(NC(=O)NC2CCN(c3ccnc(Nc4ccc(F)cc4)n3)C2)c1 (stereo not drawn)
2. NS(=O)(=O)c1cccc(N/C=C2\C(=O)Nc3ccc(S(=O)(=O)Cc4c(Cl)cccc4Cl)cc32)c1
3. CSc1ccc(-c2nc3n(c2-c2ccncc2)CCC3)cc1
4. COc1cc2ncnc(Nc3cccc(Br)c3)c2cc1OC.Cl
5. CC(=O)c1cccc(NC(=O)NC2CCN(c3ccnc(Nc4ccc(F)cc4)n3)C2)c1 (stereo not drawn)

1: 0; 2: 0; 3: 3; 4: 7; 5: 0

Please go through the list and note %Inh for each compound.
1. Cc1ccc(NC(=O)Nc2ccc(Cl)c(C(F)(F)F)c2)cc1-c1ccc(C(=O)Nc2ccncc2)cc1
2. Cc1ccccc1-c1cc(-c2c[nH]nc2-c2ccccn2)ccn1
3. COc1ccc(Nc2nccc(NCCNC(=O)Nc3cc(C)ccc3C)n2)cc1
4. CCCCc1nn2ncccc2c1-c1ccnc(NC2CC2)n1
5. CNc1nc(-c2ccc3c(N)n[nH]c3c2)cc(N2C[C@@H](C(=O)NC3CCCCC3)OC[C@H]2C)n1
6. CC(=O)c1c(C)c2cnc(Nc3ccn(C)n3)nc2n(C2CCCC2)c1=O

1. 0
2. 0
3. 14
4. 0
5. 0
6. 0

###

I'd be grateful if you could share measured %Inh for these entries.
system: PKN1; settings: concentration: 1 μM, replicates: in singlicate; n = 1
One number for each entry, in %.

1. Nc1nccc(-c2c(-c3ccc(F)cc3)ncn2C2CCN(Cc3ccccc3)CC2)n1	0
2. COc1ccc(CSc2nnc(-c3ccc4c(c3)CCO4)o2)cc1	0
3. O=c1cc(N2CCOCC2)nc2n(Cc3ccccc3F)ccn12	7
4. Cc1c(Cn2c(C)c(C)n3c(=O)cc(N4CCOCC4)nc23)cccc1C(F)(F)F	0
5. COC(=O)c1cccc(NC(=O)NC2CCN(c3ccnc(Nc4ccc(OC)cc4)n3)C2)c1 (stereo not shown)	11
6. O=C1NC(=O)C(c2ccc(Cl)cc2)=C1Nc1ccc(O)cc1	0

For each listed entry, give its %Inh.
1. Cc1nccc(-c2c(-c3ccc(F)cc3)ncn2CCCN2CCOCC2)n1.Cl
2. Cc1ccccc1-c1cc(-c2c[nH]nc2-c2ccccn2)ccn1
3. O=c1cc(N2CCOCC2)nc2n(Cc3cccc(Cl)c3Cl)c3ccccc3n12
4. COc1ccc2cc(-c3nc(-c4ccccc4C(C)C)[nH]c3-c3ccncc3)ccc2c1
5. COc1ccc(CSc2nnc(-c3ccc4nccn4c3)o2)cc1C(F)(F)F

[19, 0, 21, 24, 3]

Provide reported %Inh for each item, in the same order as listed.
1. Cc1cnc(N)c(/C=C/c2cncc(C(=O)NCCc3ccc(Cl)cc3Cl)c2)c1.Cl
2. CNCc1ccc2nc(NC(=O)c3ccc(C(C)(C)C)cc3)cn2c1
3. COc1cccc(NC(=O)Nc2ccc(C)c(-c3ccc(C(=O)Nc4ccncc4)cc3)c2)c1
4. FC(F)(F)c1ccccc1-c1cc(-c2c[nH]nc2-c2ccccn2)ccn1
5. CC(=O)c1cccc(NC(=O)NC2CCN(c3ccnc(Nc4ccc(F)cc4)n3)C2)c1 (stereo not shown)

1: 7; 2: 8; 3: 0; 4: 0; 5: 31

###

test system: RIPK1; conditions: concentration: 1 μM, replicates: in singlicate; n = 1
reported_endpoint: %Inh (%)
Answers are plain numbers, in %.

Example entries begin here.
1. CS(=O)(=O)CCNCc1nc(-c2ccc3ncnc(Nc4ccc(OCc5ccccc5)c(Cl)c4)c3c2)cs1.Cl	0
2. Nc1ncnc2occ(-c3ccc4c(c3)CCN4C(=O)Cc3cc(F)ccc3F)c12	98.6

Here are 3 molecules. What values of %Inh were reported for them?
1. COc1ccc(Nc2nccc(N3CCC(NC(=O)C(C)c4ccc(Cl)cc4)CC3)n2)cc1 (centres unmarked)
2. Fc1ccc(-c2nn3cccc(F)c3c2-c2ccncc2)cc1
3. CCn1c(-c2c(N)noc2C)nc2cnccc21

1. 22
2. 0
3. 0

###

test system: CSF1R; conditions: concentration: 1 μM, replicates: in singlicate; n = 1
reported_endpoint: %Inh (%)
One number for each entry, in %.

For orientation, consider the following solved cases.
1) CSc1ccc(-c2nc3n(c2-c2ccncc2)CCC3)cc1	40
2) COc1nccc(-c2c(-c3ccc(F)cc3)ncn2CCCN2CCOCC2)n1	0
3) O=C1NC(=O)C(c2ccc(Cl)cc2)=C1Nc1cccc(Cl)c1	13
4) COC(=O)c1cccc(NC(=O)NC2CCN(c3ccnc(Nc4ccc(OC)cc4)n3)C2)c1 (stereo not drawn)	0
5) Cl.Cl.Cl.N#Cc1ccc(CCNc2nccc(-c3cccc(CN4CCNCC4)c3)n2)cc1	8

Working through the 4 compounds below one at a time, give %Inh for each.
1. COc1ccc(Nc2nccc(N3CCC(NC(=O)c4cc5ccccc5s4)C3)n2)cc1 (stereo not drawn)
2. CCn1c(-c2c(N)noc2C)nc2cnccc21
3. COC(=O)C(Cc1ccccc1)NC(=O)NC1CCN(c2ccnc(Nc3ccc(F)cc3)n2)C1 (stereo not drawn)
4. COc1ccc(Nc2nccc(N3CCC(NC(=O)C(C)c4ccc(Cl)cc4)CC3)n2)cc1 (stereo not drawn)

1. 19
2. 14
3. 1
4. 0

###

system: RPS6KA4(Kin.Dom.2-C-terminal); settings: concentration: 1 μM, replicates: in singlicate; n = 1
I'd appreciate it if you could supply %Inh values for the items below.
Numbers only, in %.

1. O=C(Nc1n[nH]c2nc(-c3cccs3)c(Br)cc12)C1CCCC1	25
2. Cc1cnc(N)c(/C=C/c2cncc(C(=O)NCCc3ccc(Cl)cc3Cl)c2)c1.Cl	0
3. CS(=O)(=O)Cc1ccc(Nc2nccc(-c3c(-c4cccc(NC(=O)C5CCCCC5)c4)nn4ncccc34)n2)cc1	35

I'm hoping you can list %Inh for every compound here, please.
1. Nc1ncnc2occ(-c3ccc4c(c3)CCN4C(=O)Cc3cc(F)ccc3F)c12
2. CC(C)c1cc(-c2ccc3c(N)n[nH]c3c2)nc(N)n1
3. CC[C@@H]1CO[C@H](C(=O)Nc2ccccc2)CN1c1cc(-c2ccc3c(N)n[nH]c3c2)nc(NC)n1

1. 0
2. 3
3. 0

Go through the list and state %Inh for each entry.
1. Cn1cnc2c(N)ncnc21
2. COc1cccc(C2=C(Nc3cc(Cl)c(O)c(Cl)c3)C(=O)NC2=O)c1
3. Fc1ccc(-c2nc[nH]c2-c2ccncc2)cc1
4. Cc1ccc(NC(=O)Nc2ccc(Cl)cc2)cc1-c1ccc(C(=O)Nc2ccncc2)cc1
5. COc1cc2ncnc(Nc3cccc(Br)c3)c2cc1OC.Cl
6. CS(=O)(=O)CCNCc1nc(-c2ccc3ncnc(Nc4ccc(OCc5ccccc5)c(Cl)c4)c3c2)cs1.Cl
7. Fc1ccc(-c2nn3cccc(F)c3c2-c2ccncc2)cc1

1: 0; 2: 0; 3: 0; 4: 0; 5: 0; 6: 0; 7: 0

Provide the reported %Inh of each entry below, same order.
1. Cn1cncc1C(=O)NC1CCN(c2ccnc(Nc3ccc(F)cc3)n2)C1 (stereo not shown)
2. Cc1ccc(NC(=O)Nc2ccccc2F)cc1-c1ccc(C(=O)Nc2ccncc2)cc1
3. COc1ccc(Nc2nccc(NCCNC(=O)Nc3cc(C)ccc3C)n2)cc1
4. Cn1cncc1-c1cc2c(Nc3ccc(OCc4ccccc4)cc3)ncnc2cn1
5. O=c1cc(N2CCOCC2)nc2n(Cc3cccc(Cl)c3Cl)c3ccccc3n12
6. COc1nccc(-c2c(-c3ccc(F)cc3)ncn2CCCN2CCOCC2)n1

1. 0
2. 0
3. 0
4. 0
5. 0
6. 0
